# Study target: T1, CEACAM1 (Sino Biological) (human, UniProt P13688 35-428, limits assumed)
# T1 construct: may be the same as CEACAM1-HIS; also called hCEACAM1; biotinylated soluble CEACAM1
# T1 sequence: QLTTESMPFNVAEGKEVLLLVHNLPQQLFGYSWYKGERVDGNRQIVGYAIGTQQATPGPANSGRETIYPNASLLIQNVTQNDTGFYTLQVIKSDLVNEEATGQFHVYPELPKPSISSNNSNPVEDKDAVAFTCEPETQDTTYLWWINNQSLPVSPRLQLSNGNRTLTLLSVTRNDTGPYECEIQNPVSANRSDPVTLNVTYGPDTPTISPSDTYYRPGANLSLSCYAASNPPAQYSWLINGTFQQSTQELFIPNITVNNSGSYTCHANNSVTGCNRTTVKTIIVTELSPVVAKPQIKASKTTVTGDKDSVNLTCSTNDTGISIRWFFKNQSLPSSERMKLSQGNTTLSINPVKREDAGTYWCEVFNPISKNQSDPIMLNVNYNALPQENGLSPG
# Protocol text: SPR multi-cycle, IgG on Protein A
Result type: Kd (nM)
Answers are plain numbers, in nM.

INSERT INTO measurements (binder, obs_value) VALUES
  ('He4/L16 (antibody, IgG4, V domains shown, IgG4 S241P, kappa; also called He4 / 16) VH: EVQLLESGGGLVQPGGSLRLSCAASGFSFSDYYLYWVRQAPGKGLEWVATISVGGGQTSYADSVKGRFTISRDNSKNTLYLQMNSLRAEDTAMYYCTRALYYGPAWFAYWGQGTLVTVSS VL: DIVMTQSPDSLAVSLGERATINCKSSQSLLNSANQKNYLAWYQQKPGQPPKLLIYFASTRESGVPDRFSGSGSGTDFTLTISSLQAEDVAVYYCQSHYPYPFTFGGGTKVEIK', 38.9);

Query binder follows.
Entry He9/L3 (antibody, IgG4, V domains shown, IgG4 S241P, kappa; also called He9 / 3) VH: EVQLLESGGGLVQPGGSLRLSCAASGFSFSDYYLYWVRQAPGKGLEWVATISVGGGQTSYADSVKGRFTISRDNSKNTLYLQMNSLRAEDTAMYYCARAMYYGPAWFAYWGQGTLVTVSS VL: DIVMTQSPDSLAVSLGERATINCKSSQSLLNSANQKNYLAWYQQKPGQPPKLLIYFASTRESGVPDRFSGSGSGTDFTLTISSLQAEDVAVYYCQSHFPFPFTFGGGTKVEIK has what Kd?
31.6
